Details: in water, 318 K
Readout: solubility (mole fraction)

Exercise: Value lookup for solubility (mole fraction); key = CC[C@H]1OC(=O)[C@H](C)[C@@H](O[C@H]2C[C@@](C)(OC)[C@@H](O)[C@H](C)O2)[C@H](C)[C@@H](O[C@@H]2O[C@H](C)C[C@H](N(C)C)[C@H]2O)[C@](C)(O)C[C@@H](C)C(=O)[C@H](C)[C@@H](O)[C@]1(C)O.O.O
Key: 3.5e-05

###

Details: in isopropanol, 293.2 K
Readout: solubility (mole fraction)
Write no unit; give the number alone.

Exercise: Value lookup for solubility (mole fraction); key = CC[C@H]1OC(=O)[C@H](C)[C@@H](O[C@H]2C[C@@](C)(OC)[C@@H](O)[C@H](C)O2)[C@H](C)[C@@H](O[C@@H]2O[C@H](C)C[C@H](N(C)C)[C@H]2O)[C@](C)(O)C[C@@H](C)C(=O)[C@H](C)[C@@H](O)[C@]1(C)O.O.O
Key: 0.003

###

Conditions: in chloroform, 313.1 K
Readout: solubility (mole fraction)
Write no unit; give the number alone.

Exercise: Value lookup for solubility (mole fraction); key = CC[C@H]1OC(=O)[C@H](C)[C@@H](O[C@H]2C[C@@](C)(OC)[C@@H](O)[C@H](C)O2)[C@H](C)[C@@H](O[C@@H]2O[C@H](C)C[C@H](N(C)C)[C@H]2O)[C@](C)(O)C[C@@H](C)C(=O)[C@H](C)[C@@H](O)[C@]1(C)O.O.O
Key: 0.0216

###

Conditions: in ethanol, 298 K
Readout: solubility (mole fraction)
Write no unit; give the number alone.

Exercise: Value lookup for solubility (mole fraction); key = CC[C@H]1OC(=O)[C@H](C)[C@@H](O[C@H]2C[C@@](C)(OC)[C@@H](O)[C@H](C)O2)[C@H](C)[C@@H](O[C@@H]2O[C@H](C)C[C@H](N(C)C)[C@H]2O)[C@](C)(O)C[C@@H](C)C(=O)[C@H](C)[C@@H](O)[C@]1(C)O.O.O
Key: 0.0192

###

Settings: in chloroform, 293.2 K
Readout: solubility (mole fraction)

Exercise: Value lookup for solubility (mole fraction); key = CC[C@H]1OC(=O)[C@H](C)[C@@H](O[C@H]2C[C@@](C)(OC)[C@@H](O)[C@H](C)O2)[C@H](C)[C@@H](O[C@@H]2O[C@H](C)C[C@H](N(C)C)[C@H]2O)[C@](C)(O)C[C@@H](C)C(=O)[C@H](C)[C@@H](O)[C@]1(C)O.O.O
Key: 0.00391

###

Conditions: in water, 293.2 K
Readout: solubility (mole fraction)
Write no unit; give the number alone.

Exercise: Value lookup for solubility (mole fraction); key = CC[C@H]1OC(=O)[C@H](C)[C@@H](O[C@H]2C[C@@](C)(OC)[C@@H](O)[C@H](C)O2)[C@H](C)[C@@H](O[C@@H]2O[C@H](C)C[C@H](N(C)C)[C@H]2O)[C@](C)(O)C[C@@H](C)C(=O)[C@H](C)[C@@H](O)[C@]1(C)O.O.O
Key: 5.4e-05

###

Conditions: in chloroform, 308 K
Readout: solubility (mole fraction)
Write no unit; give the number alone.

Exercise: Value lookup for solubility (mole fraction); key = CC[C@H]1OC(=O)[C@H](C)[C@@H](O[C@H]2C[C@@](C)(OC)[C@@H](O)[C@H](C)O2)[C@H](C)[C@@H](O[C@@H]2O[C@H](C)C[C@H](N(C)C)[C@H]2O)[C@](C)(O)C[C@@H](C)C(=O)[C@H](C)[C@@H](O)[C@]1(C)O.O.O
Key: 0.0134

###

Settings: in methanol, 303.15 K
Readout: solubility (mole fraction)

Exercise: Value lookup for solubility (mole fraction); key = CC[C@H]1OC(=O)[C@H](C)[C@@H](O[C@H]2C[C@@](C)(OC)[C@@H](O)[C@H](C)O2)[C@H](C)[C@@H](O[C@@H]2O[C@H](C)C[C@H](N(C)C)[C@H]2O)[C@](C)(O)C[C@@H](C)C(=O)[C@H](C)[C@@H](O)[C@]1(C)O.O.O
Key: 0.0179

###

Conditions: in methanol, 298 K
Readout: solubility (mole fraction)
Write no unit; give the number alone.

Exercise: Value lookup for solubility (mole fraction); key = CC[C@H]1OC(=O)[C@H](C)[C@@H](O[C@H]2C[C@@](C)(OC)[C@@H](O)[C@H](C)O2)[C@H](C)[C@@H](O[C@@H]2O[C@H](C)C[C@H](N(C)C)[C@H]2O)[C@](C)(O)C[C@@H](C)C(=O)[C@H](C)[C@@H](O)[C@]1(C)O.O.O
Key: 0.0143

###

Conditions: in acetone, 323 K
Readout: solubility (mole fraction)
Write no unit; give the number alone.

Exercise: Value lookup for solubility (mole fraction); key = CC[C@H]1OC(=O)[C@H](C)[C@@H](O[C@H]2C[C@@](C)(OC)[C@@H](O)[C@H](C)O2)[C@H](C)[C@@H](O[C@@H]2O[C@H](C)C[C@H](N(C)C)[C@H]2O)[C@](C)(O)C[C@@H](C)C(=O)[C@H](C)[C@@H](O)[C@]1(C)O.O.O
Key: 0.0804

###

Conditions: in isopropanol, 308 K
Readout: solubility (mole fraction)

Exercise: Value lookup for solubility (mole fraction); key = CC[C@H]1OC(=O)[C@H](C)[C@@H](O[C@H]2C[C@@](C)(OC)[C@@H](O)[C@H](C)O2)[C@H](C)[C@@H](O[C@@H]2O[C@H](C)C[C@H](N(C)C)[C@H]2O)[C@](C)(O)C[C@@H](C)C(=O)[C@H](C)[C@@H](O)[C@]1(C)O.O.O
Key: 0.00754

###

Conditions: in ethanol, 308 K
Readout: solubility (mole fraction)
Write no unit; give the number alone.

Exercise: Value lookup for solubility (mole fraction); key = CC[C@H]1OC(=O)[C@H](C)[C@@H](O[C@H]2C[C@@](C)(OC)[C@@H](O)[C@H](C)O2)[C@H](C)[C@@H](O[C@@H]2O[C@H](C)C[C@H](N(C)C)[C@H]2O)[C@](C)(O)C[C@@H](C)C(=O)[C@H](C)[C@@H](O)[C@]1(C)O.O.O
Key: 0.0338

###

Details: in chloroform, 303.15 K
Readout: solubility (mole fraction)
Write no unit; give the number alone.

Exercise: Value lookup for solubility (mole fraction); key = CC[C@H]1OC(=O)[C@H](C)[C@@H](O[C@H]2C[C@@](C)(OC)[C@@H](O)[C@H](C)O2)[C@H](C)[C@@H](O[C@@H]2O[C@H](C)C[C@H](N(C)C)[C@H]2O)[C@](C)(O)C[C@@H](C)C(=O)[C@H](C)[C@@H](O)[C@]1(C)O.O.O
Key: 0.00875

###

Conditions: in water, 323 K
Readout: solubility (mole fraction)
Write no unit; give the number alone.

Exercise: Value lookup for solubility (mole fraction); key = CC[C@H]1OC(=O)[C@H](C)[C@@H](O[C@H]2C[C@@](C)(OC)[C@@H](O)[C@H](C)O2)[C@H](C)[C@@H](O[C@@H]2O[C@H](C)C[C@H](N(C)C)[C@H]2O)[C@](C)(O)C[C@@H](C)C(=O)[C@H](C)[C@@H](O)[C@]1(C)O.O.O
Key: 3.4e-05

###

Details: in methanol, 318 K
Readout: solubility (mole fraction)
Write no unit; give the number alone.

Exercise: Value lookup for solubility (mole fraction); key = CC[C@H]1OC(=O)[C@H](C)[C@@H](O[C@H]2C[C@@](C)(OC)[C@@H](O)[C@H](C)O2)[C@H](C)[C@@H](O[C@@H]2O[C@H](C)C[C@H](N(C)C)[C@H]2O)[C@](C)(O)C[C@@H](C)C(=O)[C@H](C)[C@@H](O)[C@]1(C)O.O.O
Key: 0.0305

###

Conditions: in chloroform, 298 K
Readout: solubility (mole fraction)
Write no unit; give the number alone.

Exercise: Value lookup for solubility (mole fraction); key = CC[C@H]1OC(=O)[C@H](C)[C@@H](O[C@H]2C[C@@](C)(OC)[C@@H](O)[C@H](C)O2)[C@H](C)[C@@H](O[C@@H]2O[C@H](C)C[C@H](N(C)C)[C@H]2O)[C@](C)(O)C[C@@H](C)C(=O)[C@H](C)[C@@H](O)[C@]1(C)O.O.O
Key: 0.0054

###

Conditions: in acetone, 303.15 K
Readout: solubility (mole fraction)
Write no unit; give the number alone.

Exercise: Value lookup for solubility (mole fraction); key = CC[C@H]1OC(=O)[C@H](C)[C@@H](O[C@H]2C[C@@](C)(OC)[C@@H](O)[C@H](C)O2)[C@H](C)[C@@H](O[C@@H]2O[C@H](C)C[C@H](N(C)C)[C@H]2O)[C@](C)(O)C[C@@H](C)C(=O)[C@H](C)[C@@H](O)[C@]1(C)O.O.O
Key: 0.0217
